- testDetails: Solubility in acetone
- Type: physicochemical
- Design: key: ∘: completely dissolved; x: not completely dissolved
- assayContext: 1.0 weight % based on acetone

smilesCode	Solubility 1.0%
CCCCCCCCCCOc1ccc(C2=c3nc(c4c5cccc6cccc(c3=4)c65)C(c3ccc(OCCCCCCCCCC)cc3)=c3c4c(c5[n]3[Ni][n]3c2c2c(c3C(c3ccc(OCCCCCCCCCC)cc3)=c3nc(c6c7cccc8cccc(c3=6)c87)C=5c3ccc(OCCCCCCCCCC)cc3)-c3cccc5cccc-2c35)-c2cccc3cccc-4c23)cc1	∘
CCCCCCCCCCOc1ccc(C2=c3nc(c4c5ccc(Cl)c6c(Cl)ccc(c3=4)c65)C(c3ccc(OCCCCCCCCCC)cc3)=c3c4c(c5[n]3[Ni][n]3c2c2c(c3C(c3ccc(OCCCCCCCCCC)cc3)=c3nc(c6c7ccc(Cl)c8c(Cl)ccc(c3=6)c87)C=5c3ccc(OCCCCCCCCCC)cc3)-c3ccc(Cl)c5c(Cl)ccc-2c35)-c2ccc(Cl)c3c(Cl)ccc-4c23)cc1	∘
CCCCCOc1ccc(C2=c3nc(c4c5cccc6cccc(c3=4)c65)C(c3ccc(OCCCCC)cc3)=c3c4c(c5[n]3[Cu][n]3c2c2c(c3C(c3ccc(OCCCCC)cc3)=c3nc(c6c7cccc8cccc(c3=6)c87)C=5c3ccc(OCCCCC)cc3)-c3cccc5cccc-2c35)-c2cccc3cccc-4c23)cc1	∘
CCCCCCOc1ccc(C2=c3nc(c4c5cccc6cccc(c3=4)c65)C(c3ccc(OCCCCCC)cc3)=c3c4c(c5[n]3[Cu][n]3c2c2c(c3C(c3ccc(OCCCCCC)cc3)=c3nc(c6c7cccc8cccc(c3=6)c87)C=5c3ccc(OCCCCCC)cc3)-c3cccc5cccc-2c35)-c2cccc3cccc-4c23)cc1	∘
